- measurement_target: Squalene synthase (Rattus norvegicus)
- Sequence (Q02769 whole entry): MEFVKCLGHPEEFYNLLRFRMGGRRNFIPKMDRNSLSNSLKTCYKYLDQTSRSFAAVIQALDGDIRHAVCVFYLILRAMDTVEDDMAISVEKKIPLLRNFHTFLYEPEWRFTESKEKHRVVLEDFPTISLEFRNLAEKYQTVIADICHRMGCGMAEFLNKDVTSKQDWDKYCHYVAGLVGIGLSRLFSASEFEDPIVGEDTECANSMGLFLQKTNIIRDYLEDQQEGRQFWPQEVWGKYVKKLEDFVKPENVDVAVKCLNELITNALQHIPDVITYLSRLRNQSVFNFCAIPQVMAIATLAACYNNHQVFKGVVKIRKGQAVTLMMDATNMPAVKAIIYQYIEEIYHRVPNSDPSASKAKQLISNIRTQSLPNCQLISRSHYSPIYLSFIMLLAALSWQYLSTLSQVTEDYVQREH
- experimental_protocol: In vitro for inhibitory activity against Squalene synthase in rat
Listed here: items and their measured pIC50.
By convention, pIC50 is the negative base-10 log of a molar concentration.

Worked examples follow.
[
  {
    "chem_smiles": "C=C(CC[C@]12O[C@H](c3nnnn3C)[C@@](O)(C(=O)O)[C@](C(=O)O)(O1)[C@H](O)[C@H]2O)[C@@H](C(C)=O)[C@H](C)Cc1ccccc1",
    "measurement_target": "Squalene synthase (Rattus norvegicus)",
    "pIC50": 6.35
  },
  {
    "chem_smiles": "C=C(CC[C@]12O[C@H](c3nc(C)no3)[C@@](O)(C(=O)O)[C@](C(=O)O)(O1)[C@H](O)[C@H]2O)[C@@H](C(C)=O)[C@H](C)Cc1ccccc1",
    "measurement_target": "Squalene synthase (Rattus norvegicus)",
    "pIC50": 6.51
  },
  {
    "chem_smiles": "C=C(CC[C@]12O[C@H](C(=O)OC)[C@@](O)(C(=O)O)[C@](C(=O)O)(O1)[C@H](O)[C@H]2O)[C@@H](C(C)=O)[C@H](C)Cc1ccccc1",
    "measurement_target": "Squalene synthase (Rattus norvegicus)",
    "pIC50": 6.66
  }
]

[ask] # input compound: `C=C(CC[C@]12O[C@H](c3nnc(C)[nH]3)[C@@](O)(C(=O)O)[C@](C(=O)O)(O1)[C@H](O)[C@H]2O)[C@@H](C(C)=O)[C@H](C)Cc1ccccc1` ; wanted: its pIC50
[reply] 6.51

[ask] `C=C(CC[C@]12O[C@H](c3nnc(NC)o3)[C@@](O)(C(=O)O)[C@](C(=O)O)(O1)[C@H](O)[C@H]2O)[C@@H](C(C)=O)[C@H](C)Cc1ccccc1` ?
[reply] 6.83

[ask] Param item: `C=C(CC[C@]12O[C@H](c3cscn3)[C@@](O)(C(=O)O)[C@](C(=O)O)(O1)[C@H](OC(=O)/C=C/[C@@H](C)C[C@@H](C)CC)[C@H]2O)[C@@H](C(C)=O)[C@H](C)Cc1ccccc1`
[reply] 7.04

[ask] And what about the compound `C=C(CC[C@]12O[C@H](c3csc(C)n3)[C@@](O)(C(=O)O)[C@](C(=O)O)(O1)[C@H](O)[C@H]2O)[C@@H](C(C)=O)[C@H](C)Cc1ccccc1` ?
[reply] 5.54
